Origin of the recorded values: patent US20240174727A1

- MEASURED_ON: T1, rat NPRA (rat, UniProt P18910 29-1057)
- T1 sequence (looked up): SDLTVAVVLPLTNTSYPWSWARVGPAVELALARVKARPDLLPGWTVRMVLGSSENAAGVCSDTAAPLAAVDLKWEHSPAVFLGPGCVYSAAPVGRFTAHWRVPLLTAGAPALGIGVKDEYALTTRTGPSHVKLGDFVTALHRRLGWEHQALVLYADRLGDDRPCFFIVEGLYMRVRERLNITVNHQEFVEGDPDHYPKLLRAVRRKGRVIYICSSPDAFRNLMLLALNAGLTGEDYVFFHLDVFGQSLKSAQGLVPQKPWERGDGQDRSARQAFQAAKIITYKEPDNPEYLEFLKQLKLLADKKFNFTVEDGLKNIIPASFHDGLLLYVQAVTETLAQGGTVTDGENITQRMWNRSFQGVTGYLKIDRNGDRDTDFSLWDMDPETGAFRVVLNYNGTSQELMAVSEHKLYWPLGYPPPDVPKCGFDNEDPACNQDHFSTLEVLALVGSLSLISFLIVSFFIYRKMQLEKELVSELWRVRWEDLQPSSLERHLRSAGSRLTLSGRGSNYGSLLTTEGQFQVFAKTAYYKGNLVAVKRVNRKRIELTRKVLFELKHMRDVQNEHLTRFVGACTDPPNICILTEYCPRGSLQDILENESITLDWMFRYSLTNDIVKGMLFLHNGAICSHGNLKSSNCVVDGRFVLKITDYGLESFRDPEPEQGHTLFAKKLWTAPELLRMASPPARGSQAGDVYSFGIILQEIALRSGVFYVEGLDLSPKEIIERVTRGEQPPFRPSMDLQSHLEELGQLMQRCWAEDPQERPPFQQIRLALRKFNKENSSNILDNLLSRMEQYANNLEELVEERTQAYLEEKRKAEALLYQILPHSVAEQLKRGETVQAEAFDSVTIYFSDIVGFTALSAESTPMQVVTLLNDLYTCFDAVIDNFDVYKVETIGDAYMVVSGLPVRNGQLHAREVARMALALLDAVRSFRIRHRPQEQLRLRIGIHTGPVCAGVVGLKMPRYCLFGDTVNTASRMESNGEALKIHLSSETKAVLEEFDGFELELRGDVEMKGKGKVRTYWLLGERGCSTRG
- TEST_DETAILS: cell-based or functional assay
Numbered stars: 1 amine (or outer) side, 2 acyl side, 3 side chain; on linkers, the order of the positions; unused ones are H or OH. Bridge positions count the residues as written; N and C are the ends. Square brackets hold non-standard residues; d marks the D form. Primed or numbered codes have the meaning given here. * marks the point of attachment. thioacetal = thioacetal linkage between two cysteines (intrachain bond at the bracketed Cys); C20 diacid = O=C(O)CCCCCCCCCCCCCCCCCCC(=O)*; γGlu = O=C(O)[C@H](CCC(=O)[*:2])N[*:1]; 4Pal = N[C@@H](Cc1ccncc1)C(=O)O; thioacetal″ = not defined here; βAla = NCCC(=O)O
Measured cGMP Assay (EC50, pM) w/Casein by item
ENDPOINT_LABEL: cGMP Assay (EC50, pM) w/Casein

{C20 diacid}-[γGlu]EKEKEKGEK[βAla]RSSCFGGRIDRIGHYSGLGCPSFRHGGPSSGAPPPS-NH2 (bridge 15-31 via thioacetal) [Example 70]; 11800 pM
SXRRSSCFGGRIDRIGHYSGLGCPSFRHGSPSSGAPPPS (HOOC-(CH2)18-CO-(γGlu)-EKEKEKG-(AEEA)6-S-4Pal-RRSS[CFGGRIDRIGHYSGLGC]PSFRHGSPSSGAPPPS-NH2; thioacetal linkage between the bracketed Cys) [Example 96]; 12200 pM
EKXRSSCFGGKIDRIGHQSGLGCPSFRHGSPSSGAPPPS (HOOC-(CH2)18-CO-(γGlu)-EKEKEKG-PEG24-EK-βAla-RSS[CFGGKIDRIGHQSGLGC]PSFRHGSPSSGAPPPS-NH2; thioacetal linkage between the bracketed Cys) [Example 7]; 184000 pM
EKXRSSCFGKRIDRIGHQSGLGCPSFRHGSPSSGAPPPS (HOOC-(CH2)18-CO-(γGlu)-EKEKEKG-PEG24-EK-βAla-RSS[CFGKRIDRIGHQSGLGC]PSFRHGSPSSGAPPPS-NH2; thioacetal linkage between the bracketed Cys) [Example 4]; 22500 pM
SXRRSSCFGGRIDRIGHQSGLGCPSFRHGGKSSGAPPPS (HOOC-(CH2)18-CO-(γGlu)-EKEKEKG-PEG12-S-4Pal-RRSS[CFGGRIDRIGHQSGLGC]PSFRHGGKSSGAPPPS-NH2; thioacetal linkage between the bracketed Cys) [Example 82]; 25400 pM
SXRRSSCFGGRIDRIGHQSGLGCPSFRHGGPSSGAPPPS (HOOC-(CH2)18-CO-(γGlu)-EKEKEKG-PEG24-S-4Pal-RRSS[CFGGRIDRIGHQSGLGC]PSFRHGGPSSGAPPPS-NH2; thioacetal linkage between the bracketed Cys) [Example 61]; 32000 pM
EKXRSSCFGGRIDRIGHYSGLGCPSFRHGSPSSGAPPPS (HOOC-(CH2)18-CO-(γGlu)-EKEKEKG-(AEEA)6-EK-βAla-RSS[CFGGRIDRIGHYSGLGC]PSFRHGSPSSGAPPPS-NH2; thioacetal linkage between the bracketed Cys) [Example 98]; 17900 pM
XEKEKEKGSXRRSSCFGGRIDRIGAQSGLGCNSFRY (HOOC-(CH2)18-CO-(γGlu)-EKEKEKGS-4Pal-RRSS[CFGGRIDRIGAQSGLGC]NSFRY-NH2; disulfide linkage between the bracketed Cys) [Example 11]; 242 pM
XEKEKEKGSKXRSSCFGGRIDRIGHYSGLGCPSFRHGGPSSGAPPPS (HOOC-(CH2)18-CO-(γGlu)-EKEKEKGSK-βAla-RSS[CFGGRIDRIGHYSGLGC]PSFRHGGPSSGAPPPS-NH2; thioacetal linkage between the bracketed Cys) [Example 65]; 7420 pM
EKXRSSCFGGKIDRIGHYSGLGCPSFRHGSPSSGAPPPS (HOOC-(CH2)18-CO-(γGlu)-EKEKEKG-PEG24-EK-βAla-RSS[CFGGKIDRIGHYSGLGC]PSFRHGSPSSGAPPPS-NH2; thioacetal linkage between the bracketed Cys) [Example 6]; 30500 pM
SXRRSSCFGKRIDRIGHQSGLGCPSFRHGGKSSGAPPPS (HOOC-(CH2)18-CO-(γGlu)-EKEKEKG-(AEEA)8-S-4Pal-RRSS[CFGKRIDRIGHQSGLGC]PSFRHGGKSSGAPPPS-NH2; thioacetal linkage between the bracketed Cys) [Example 87]; 8870 pM
{C20 diacid}-[γGlu]EKEKEKGS[4Pal]RRSSCFGKRIDRIGHYSGLGCPSFRHGGKSSGAPPPS-NH2 (bridge 15-31 via thioacetal″; reading uncertain) [Example 81]; 1910 pM
